STUDY TARGET: Tyrosine-protein kinase SYK (Homo sapiens, UniProt P43405)
ASSAY NAME: Inhibition of SYK in human mast cell cultures assessed as reduction in ionomycin-induced calcium mobilization mediated degranulation by tryptase release assay
The following molecules are listed with their measured EC50 values.
Kindly answer with a numeric value in µM, unit omitted.

Worked examples follow.
- NC(=O)COc1ccc(Nc2ncc(F)c(Nc3cccc(O)c3)n2)cc1: 10
- N#CCOc1ccc(Nc2ncc(F)c(Nc3cccc(O)c3)n2)cc1: 10

Next:
Q. Need EC50 of CNC(=O)COc1cccc(Nc2ncc(F)c(Nc3ccc(C(C)(C)C)cc3)n2)c1 , thanks.
A. 10

----------
The following compounds are listed with their measured log10 EC50 values.
STUDY TARGET: Tyrosine-protein kinase SYK (Homo sapiens, UniProt P43405)
ASSAY NAME: Inhibition of SYK in human mast cell cultures assessed as reduction in IgE-induced FCepsilonR1 mediated degranulation by tryptase release assay
Short version: log10 scale, EC50, nM.

Worked examples follow.
- COCCOc1cccc(Nc2ncc(F)c(Nc3cccc(OCCOC)c3)n2)c1: 3.62
- CCOc1ccc(Nc2nc(Nc3cccc(OCC(=O)NC)c3)ncc2F)cc1: 3.04
- OCc1cccc(Nc2ncc(F)c(Nc3cccc(CO)c3)n2)c1: 3.45
- CCOC(=O)CNc1cccc(Nc2ncc(F)c(Nc3cccc(O)c3)n2)c1: 2.52
- Nc1ccc(Nc2ncc(F)c(Nc3ccc(N)cc3)n2)cc1: 3.63
- Oc1cccc(Nc2ccnc(Nc3cccc(O)c3)n2)c1: 2.70
- N#Cc1cnc(Nc2cccc(O)c2)nc1Nc1cccc(O)c1: 2.64
- OCCOc1cccc(Nc2nc(Nc3cccc(O)c3)ncc2F)c1: 2.83

Q. API: value(readout=log10 EC50, system=Tyrosine-protein kinase SYK (Homo sapiens, UniProt P43405)) for record CNC(=O)COc1cccc(Nc2ncc(F)c(Nc3ccc(C(F)(F)F)cc3)n2)c1
A. 2.32

Q. Here is the next compound: NC(=O)COc1ccc(Nc2nc(Nc3cccc(O)c3)ncc2F)cc1
A. 3.19

Q. Here is the next compound: CC(C)Oc1ccc(Nc2ncc(F)c(Nc3ccc(OC(C)C)cc3)n2)cc1
A. 3.34

----------
STUDY TARGET: UniProt P43405
ASSAY NAME: Inhibition of SYK in human mast cell cultures assessed as reduction in IgE-induced FCepsilonR1 mediated degranulation by tryptase release assay
The following compounds are listed with their measured log10(EC50) values.
Short version: log10 scale, EC50, nM.

- N#Cc1cccc(Nc2ncc(F)c(Nc3cccc(C#N)c3)n2)c1: 2.98
- Cn1nnnc1COc1ccc(Nc2ncc(F)c(Nc3ccc(OCc4nnnn4C)cc3)n2)cc1: 2.88
- N#CCOc1ccc(Nc2ncc(F)c(Nc3ccc(OCC#N)cc3)n2)cc1: 2.57
- CC(C)(CO)c1ccc(Nc2nc(Nc3cccc(OCCO)c3)ncc2F)cc1: 2.45
- Fc1cnc(Nc2cccc(Cl)c2)nc1Nc1cccc(Cl)c1: 3.76

Q. API: value(readout=log10(EC50), system=UniProt P43405) for record COc1ccc(Nc2ncc(F)c(Nc3ccc(OC)cc3)n2)cc1
A. 3.16

----------
STUDY TARGET: UniProtKB P43405
ASSAY NAME: Inhibition of SYK in human mast cell cultures assessed as reduction in IgE-induced FCepsilonR1 mediated degranulation by tryptase release assay
ATTRIBUTE MEASURED: EC50 (nM)
Kindly answer with a numeric value in nM, unit omitted.

* COC(=O)COc1ccc(Nc2nc(Nc3ccc(OCC(N)=O)cc3)ncc2F)cc1 | 940
* Oc1cccc(Nc2ncc(C(F)(F)F)c(Nc3cccc(O)c3)n2)c1 | 270
* CCOc1ccc(Nc2ccnc(Nc3ccc(OCC)cc3)n2)cc1 | 3380

Next:
Q. API: value(readout=EC50, system=UniProtKB P43405) for record Oc1ccc(Nc2ncc(F)c(Nc3ccc(O)cc3)n2)cc1
A. 3400
